Test system: Aspergillus flavus
TEST DESCRIPTION: Antifungal activity against Aspergillus flavus ATCC 204304 measured after 72 hrs by agar dilution method
Format: functional
ASSAY SETUP: ATCC 204304, 72 h
OUTCOME MEASURE: MIC (µM)
Lab book: enter the figure in µM, no units written.

In the examples that follow, each entry is paired with its recorded MIC.
COc1cccc(C2C(C#N)=C(N)Oc3cc(OCc4cn([C@@H]5O[C@H](COC(C)=O)[C@@H](OC(C)=O)[C@H](OC(C)=O)[C@H]5OC(C)=O)nn4)ccc32)c1OC (stereo partly drawn)	25
CC(=O)OC[C@H]1O[C@@H](n2cc(COc3ccc4c(c3)OC(N)=C(C#N)C4c3ccc(Br)cc3)nn2)[C@H](OC(C)=O)[C@@H](OC(C)=O)[C@@H]1OC(C)=O (stereo partly drawn)	200

Here is the next item to consider.
According to the records, this molecule CC(=O)OC[C@H]1O[C@@H](n2cc(COc3ccc4c(c3)OC(N)=C(C#N)C4c3ccc(C)cc3)nn2)[C@H](OC(C)=O)[C@@H](OC(C)=O)[C@@H]1OC(C)=O (stereo partly drawn) displays MIC of 3.12

The values you see were collected from ChEMBL document CHEMBL4390647.
